# WT PsV IC50 annotations
target: SARS-CoV-2 wild type spike protein (on reporter virus particles) (SARS-CoV-2, UniProt P0DTC2 14-1273); assay: cell-based or functional assay
Please give a number only; it is taken to be in nM.

>  <Binder>
A-21.2 (antibody, V domains shown) VH: EVQLVESGGGLVQPGGSLRLSCAASGFTFSRYWMHWVRQAPGKGLVWVSRINSDGSSTTYADSVKGRFTISRDNAKNTLYLQMNSLRAEDTAVYYCARELYYYDSRGAEEGEGWFDPWGQGTLVTVSS VL: QSVLTQPPSVSGAPGQRVTISCTGISSNIGAQYDVHWYQQLPGTAPKLLIYGNSNRPRGVPDRFSASKSGTSAPLAITGLQAEDEADYYCQSSDRSVSGSVFGTGTKVTVL

>  <Reading unit>
nM

>  <Measured>
2.63

$$$$
>  <Binder>
A-21.1 (antibody, V domains shown) VH: EVQLVESGGGLVQPGGSLRLSCAASGFTFRRYWMHWVRQAPGKGLVWVSRINSDGSSTTYADSVKGRFTISRDNAKNTLYLQMNSLRAEDTAVYYCARELYYYDSRGFEEGEGWFDPWGQGTLVTVSS VL: QSVLTQPPSVSGAPGQRVTISCTGISSNIGAGYDVHWYQQLPGTAPKLLIYGNSNRPSGVPDRFSASKSGTSAPLAITGLQAEDEADYYCQSSDRSLSGSVFGTGTKVTVL

>  <Reading unit>
nM

>  <Measured>
1.75

$$$$

Turning now to a further binder:
Input line: // fetch WT PsV IC50 given entry A-24 (antibody, V domains shown) VH: EVQLVESGGGLVKPGRSLRLSCAASGFTFADYAMSWFRQAPGKGLEWVGFIRSKPYGGTTEYAASVKGRFTISRDDSKSIAYLQMNSLKTEDTAVYYCSRDPWYCSGGDCYAVTGSWFDPWGQGTLVTVSS VL: DIQMTQSPSSLSASVGDRVTITCQASQDIKKYLNWYQQKPGKAPKLLIYDVSNLETGVPSRFSGSGSGTDFTFTISSLQPEDVAIYYCQQYDNLPQTFGQGTKVEIK
Output line: 0.039

Values compiled from patent US20260217797A1.
